# Tested on: NALM-6 (B-Lymphoblastic Leukemia)
# assay text: combination Emax (second highest fraction inhibited in the dose matrix, 72 h); higher = more inhibition; extreme values may be limits of the assay
readout label: combination Emax
Lab note: record just the number, no unit beside it.

{"compound": "C[C@@H]1COCCN1c1cc(C2([S@](C)(=N)=O)CC2)nc(-c2ccnc3[nH]ccc23)n1 [AZD6738] + O=C(c1cc(Cc2n[nH]c(=O)c3ccccc23)ccc1F)N1CCN(C(=O)C2CC2)CC1 [Olaparib] (first compound max 10 µM, 7x7, partner max 10 µM)", "combination Emax": 0.976}
{"compound": "NC1(C(=O)N[C@@H](CCO)c2ccc(Cl)cc2)CCN(c2ncnc3[nH]ccc23)CC1 [Capivasertib] + C[C@@H]1COCCN1C2=NC(=NC(=C2)C3(CC3)[S@](=N)(=O)C)C4=C5C=CNC5=NC=C4 [AZD6738] (first compound max 10 µM, 7x7, partner max 10 µM)", "combination Emax": 0.984}
{"compound": "C[C@@H](c1ccc2nccn2c1)n1nnc2ncc(-c3cnn(C)c3)nc21 [Savolitinib] + Cc1c2c(nn1C)CSCc1cc(n(C)n1)CSc1cc(c3ccccc3c1)OCCCc1c(C(=O)O)n(C)c3c-2c(Cl)ccc13 [AZD5991] (first compound max 1 µM, 7x7, partner max 1 µM)", "combination Emax": 0.226}

Lab note: next compound to report on.
Request: What value of combination Emax on NALM-6 (B-Lymphoblastic Leukemia) does Cn1cnc2c(F)c(Nc3ccc(Br)cc3Cl)c(C(=O)NOCCO)cc21 [Selumetinib] + CCN(CCO)CCCOc1ccc2c(Nc3cc(CC(=O)Nc4cccc(F)c4)[nH]n3)ncnc2c1 [AZD2811] (first compound max 10 µM, 7x7, partner max 1 µM) have?
Response: 0.836

###

# Test system: KARPAS-620 (Plasma Cell Myeloma)
# assay text: Bliss excess, mean over the matrix (fraction); higher = more synergy
Catalogue of Bliss excess values
The answer should be written as a number, with no unit following it.

{"compound": "CC(=O)c1c(C)c2cnc(Nc3ccc(N4CCNCC4)cn3)nc2n(C2CCCC2)c1=O [Palbociclib] + CC1(C)CCC(CN2CCN(c3ccc(C(=O)NS(=O)(=O)c4ccc(NCC5CCOCC5)c([N+](=O)[O-])c4)c(Oc4cnc5[nH]ccc5c4)c3)CC2)=C(c2ccc(Cl)cc2)C1 [Venetoclax] (first compound max 10 µM, 7x7, partner max 1 µM)", "experimental system": "KARPAS-620 (Plasma Cell Myeloma)", "reported": 0.0056}

Continue with the next compound.
Request: Recorded Bliss excess for NC1(C(=O)N[C@@H](CCO)c2ccc(Cl)cc2)CCN(c2ncnc3[nH]ccc23)CC1 [Capivasertib] + CC(C)n1c(=O)n(C)c2cnc3cc(F)c(-c4ccc(OCCCN5CCCCC5)nc4)cc3c21 [AZD1390] (first compound max 10 µM, 7x7, partner max 0.3 µM) , please?
Response: -0.0273

###

The entries below are paired with their reported Bliss excess.
# Tested on: NALM-6 (B-Lymphoblastic Leukemia)
# assay text: Bliss excess, mean over the matrix (fraction); higher = more synergy

Request: Look at this molecule and give its reported Bliss excess. CS(=O)(=O)CCNCc1ccc(-c2ccc3ncnc(Nc4ccc(OCc5cccc(F)c5)c(Cl)c4)c3c2)o1 [Lapatinib] + C[C@@H](Oc1cc(-c2cnn(C3CCNCC3)c2)cnc1N)c1c(Cl)ccc(F)c1Cl [Crizotinib] (first compound max 10 µM, 7x7, partner max 10 µM)
Response: -0.0612

Request: So what does the record say about Bliss excess for NC1(C(=O)N[C@@H](CCO)c2ccc(Cl)cc2)CCN(c2ncnc3[nH]ccc23)CC1 [Capivasertib] + Cn1cnc2c(F)c(Nc3ccc(Br)cc3Cl)c(C(=O)NOCCO)cc21 [Selumetinib] (first compound max 10 µM, 7x7, partner max 10 µM) ?
Response: 0.0323
